test system: NCI-H1944; assay: normalised cell viability (NPI; 0 = phenylarsine oxide control, 1 = DMSO control) (fraction of DMSO control); higher = more viable cells (less compound toxicity); conditions: glucocorticoid arm: hydrocortisone 2.75 uM co-treatment; compound 5 µM; 6 days
Where a name gives a salt, the structure may show the parent alone. In all, about 1,900 compounds were measured (“normalised cell viability (NPI; 0 = phenylarsine oxide control, 1 = DMSO control)”: median about 1, lowest 2% from about 0.039 on). This is one part of a sample in which the lowest values are shown more often than they occur.
readout.name: normalised cell viability

INSERT INTO results (molecule, assayed_target, experimental_value) VALUES
  ('CCN(CCCl)CCOC(C)=O [Acetylethylcholine mustard hydrochloride]', 'NCI-H1944', 1.02),
  ('c1ccc(C2(c3ccccc3)CC2C2=NCCN2)cc1 (centres undefined) [Cibenzoline succinate]', 'NCI-H1944', 0.994),
  ('C[C@@]12N[C@@H](Cc3ccccc31)c1ccccc12 [(-)-MK-801 hydrogen maleate]', 'NCI-H1944', 1.02),
  ('CCC1(c2ccc(N)cc2)CCC(=O)NC1=O (racemic) [(±)-p-Aminoglutethimide]', 'NCI-H1944', 1.01),
  ('C[C@@]12N[C@@H](Cc3ccccc31)c1ccccc12 [(-)-MK 801 Maleate]', 'NCI-H1944', 1.02),
  ('CN1CCCCC1Cn1cc(C(=O)c2cc([N+](=O)[O-])ccc2I)c2ccccc21 (centres undefined)', 'NCI-H1944', 0.99),
  ('OC1CCCCC1N1CCC(c2ccccc2)CC1 (racemic) [(±)-Vesamicol hydrochloride]', 'NCI-H1944', 0.91),
  ('NC(Cn1oc(=O)[nH]c1=O)C(=O)O (single isomer, unassigned; (+)) [(+)-Quisqualic acid]', 'NCI-H1944', 0.973),
  ('N[C@H](C(=O)O)c1cc(O)no1 (racemic) [(±)-Ibotenic acid]', 'NCI-H1944', 1);

----------
molecules and their reported normalised cell viability
tested on: NCI-H1944; assay: normalised cell viability (NPI; 0 = phenylarsine oxide control, 1 = DMSO control) (fraction of DMSO control); higher = more viable cells (less compound toxicity); conditions: glucocorticoid arm: hydrocortisone 2.75 uM pre-treated 2 days and continued; compound 5 µM; 6 days
Where a name gives a salt, the structure may show the parent alone. In all, about 1,900 compounds were measured (“normalised cell viability (NPI; 0 = phenylarsine oxide control, 1 = DMSO control)”: median about 1, lowest 2% from about 0.039 on). This excerpt belongs to a sample that is enriched for the lowest values.
readout.name: normalised cell viability

INSERT INTO assay_data (molecule, readout_name, experimental_value) VALUES
  ('CC1C2Cc3ccc(O)cc3C1(C)CCN2CC1CC1 (single isomer, unassigned; (+)) [(+)-Cyclazocine]', 'normalised cell viability', 0.978),
  ('Oc1ncc(N(CCCl)CCCl)c(O)n1 [Uracil mustard]', 'normalised cell viability', 1.03),
  ('CN(N=O)c1ccc(O)c(O)c1 [Me-3,4-dephostatin]', 'normalised cell viability', 1.05),
  ('C[C@H](N)CN1CCc2ccc(Br)cc21 [VER-3323 hemifumarate salt]', 'normalised cell viability', 1.05),
  ('CNc1ccc2oc(C[C@H]3O[C@@]4(CC[C@H]3C)O[C@H]([C@H](C)C(=O)c3ccc[nH]3)[C@H](C)C[C@H]4C)nc2c1C(=O)O [Calcimycin]', 'normalised cell viability', 0.0205);

----------
tested on: NCI-H1944; assay: normalised cell viability (NPI; 0 = phenylarsine oxide control, 1 = DMSO control) (fraction of DMSO control); higher = more viable cells (less compound toxicity); settings: glucocorticoid arm: hydrocortisone 2.75 uM co-treatment; compound 5 µM; 6 days
Counter-ions that a name gives are not always drawn. Over roughly 1,900 compounds, “normalised cell viability (NPI; 0 = phenylarsine oxide control, 1 = DMSO control)” has its median near 1; the lowest 2% begin near 0.039. Shown is part of a subset that was picked to be rich in the lowest values.
I'd appreciate it if you marked entries YES when normalised cell viability is lower than 1 and NO when it is not.

INSERT INTO results (molecule, class) VALUES
  ('c1ccc2c(c1)[I+]c1ccccc1-2 [Diphenyleneiodonium chloride]', 'YES'),
  ('C=CCN1CCc2cccc3c2[C@H]1Cc1ccc(O)c(O)c1-3 [R(-)-N-Allylnorapomorphine hydrobromide]', 'YES'),
  ('CCS(=O)(=O)Nc1cccc(C(=C2CCCCC2)c2cnc[nH]2)c1', 'NO'),
  ('C=CCc1ccccc1OCC(O)CNC1(C)CCC(C(C)(C)NC(=O)CBr)CC1 (configuration not stated)', 'YES'),
  ('Cn1c(CCCC(=O)O)nc2cc(N(CCCl)CCCl)ccc21 [bendamustine hydrochloride]', 'YES'),
  ('CCCCN1[C@@H]2CC[C@H]1CC(OC(c1ccc(F)cc1)c1ccc(F)cc1)C2 (some centres not stated) [JHW 007 hydrochloride]', 'YES');

----------
test system: NCI-H1944; assay: normalised cell viability (NPI; 0 = phenylarsine oxide control, 1 = DMSO control) (fraction of DMSO control); NCI-H1944 is a non-small cell lung cancer line; higher = more viable cells (less compound toxicity); settings: glucocorticoid arm: hydrocortisone 2.75 uM pre-treated 2 days and continued; compound 1 µM; 6 days;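 also: CTB read-out in 384-well plates, triplicate wells, NPI normalised per plate against 1 µM phenylarsine oxide (0) and 0.1% DMSO (1) controls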
Where a name gives a salt, the structure may show the parent alone. Whole data set: some 1,900 compounds, median “normalised cell viability (NPI; 0 = phenylarsine oxide control, 1 = DMSO control)” near 1, cut for the lowest 2% near 0.039. Only a selection was taken, and the lowest values are over-represented in it overall.
molecules and their reported normalised cell viability
readout.name: normalised cell viability

INSERT INTO measurements (molecule, readout_name, experimental_value) VALUES
  ('C[C@@]12N[C@@H](Cc3ccccc31)c1ccccc12 [(-)-MK-801 hydrogen maleate]', 'normalised cell viability', 1.01),
  ('c1ccc(C2(c3ccccc3)CC2C2=NCCN2)cc1 (stereo not given) [Cibenzoline succinate]', 'normalised cell viability', 1),
  ('Cc1c(N)nc([C@H](CC(N)=O)NC[C@H](N)C(N)=O)nc1C(=O)N[C@H](C(=O)N[C@H](C)[C@@H](O)[C@H](C)C(=O)N[C@H](C(=O)NCCc1nc(-c2nc(C(=O)NCCC[S+](C)C)cs2)cs1)[C@@H](C)O)[C@@H](OC1OC(CO)C(O)C(O)C1OC1OC(CO)C(O)C(OC(N)=O)C1O)c1cnc[nH]1 (stereo not given in full) [Bleomycin sulfate]', 'normalised cell viability', 0.99),
  ('C[C@@H](N)Cc1cnc[nH]1 [Histamine, R(-)-alpha-methyl-, dihydrochloride]', 'normalised cell viability', 1),
  ('C[C@@H]1O[C@H](C[N+](C)(C)C)C[C@H]1O (racemic) [(±)-Muscarine chloride]', 'normalised cell viability', 1.01),
  ('CCC(=O)CCCCC[C@@H]1NC(=O)[C@H]2CCCCN2C(=O)[C@H]([C@@H](C)CC)NC(=O)[C@H](Cc2cn(OC)c3ccccc23)NC1=O', 'normalised cell viability', 0.644),
  ('CNc1ccc2oc(C[C@H]3O[C@@]4(CC[C@H]3C)O[C@H]([C@H](C)C(=O)c3ccc[nH]3)[C@H](C)C[C@H]4C)nc2c1C(=O)O', 'normalised cell viability', 1.01),
  ('C=CCc1ccccc1OCC(O)CNC1(C)CCC(C(C)(C)NC(=O)CBr)CC1 (stereo not given)', 'normalised cell viability', 0.994),
  ('NCc1cc(O)no1 [Muscimol hydrobromide]', 'normalised cell viability', 1.01),
  ('C[C@H]1CNCCc2ccc(Cl)cc21 [Lorcaserin HCl]', 'normalised cell viability', 1),
  ('C=C(C)[C@H]1Cc2c(ccc3c2O[C@@H]2COc4cc(OC)c(OC)cc4[C@@H]2C3=O)O1', 'normalised cell viability', 0.969),
  ('CCCN(CCC)[C@@H]1CCc2c(F)ccc(O)c2C1 [R(+)-UH-301 hydrochloride]', 'normalised cell viability', 1.03),
  ('O=C[C@H](Cl)[C@@H](O)[C@H](O)[C@H](O)CO', 'normalised cell viability', 1.01),
  ('CCCN1CCC[C@@H]2Cc3n[nH]cc3C[C@H]21 [(-)-Quinpirole hydrochloride]', 'normalised cell viability', 0.867),
  ('CCCN1CCC[C@@H]2Cc3n[nH]cc3C[C@H]21 (racemic) [(±)-Quinpirole dihydrochloride]', 'normalised cell viability', 0.893),
  ('O=C(O)[C@@H]1[C@H](C(=O)O)[C@H]2CC[C@@H]1O2 [Endothall]', 'normalised cell viability', 1.01),
  ('CC1Cc2cc3c(cc2C(c2ccc(N)cc2)=NN1)OCO3 (stereo not given)', 'normalised cell viability', 1.01),
  ('CN1CC[C@@]2(C)c3cc(O)ccc3N(C)C12 (single isomer, unassigned; (-)) [(-)-Eseroline fumarate]', 'normalised cell viability', 1.03),
  ('CCc1c(C(=O)OC)ncc2[nH]c3cc(OC)c(OC)cc3c12 [Methyl 6,7-dimethoxy-4-ethyl-beta-carboline-3-carboxylate]', 'normalised cell viability', 1.01),
  ('CC1(C(=O)O)C2CCC(O2)C1(C)C(=O)O (stereo not given)', 'normalised cell viability', 1.06),
  ('N=C(NCCC[C@H](N)C(=O)O)N[N+](=O)[O-]', 'normalised cell viability', 1.01),
  ('NC(CCP(=O)(O)O)C(=O)O (racemic) [(±)-2-Amino-4-phosphonobutyric acid]', 'normalised cell viability', 1.01),
  ('CCS(=O)(=O)Nc1cccc(C(=C2CCCCC2)c2cnc[nH]2)c1', 'normalised cell viability', 1.01),
  ('C[C@@H]1O[C@@H](O[C@H]2C[C@@H](O)[C@]3(CO)[C@H]4[C@H](O)C[C@]5(C)[C@@H]([C@@H]6COC(=O)C6)CC[C@]5(O)[C@@H]4CC[C@]3(O)C2)[C@H](O)[C@H](O)[C@H]1O [Dihydroouabain]', 'normalised cell viability', 1.01),
  ('CN[C@@H]1C[C@@H](c2ccc(Cl)c(Cl)c2)c2ccccc21 [Indatraline hydrochloride]', 'normalised cell viability', 1.02),
  ('CCC1(c2ccc(N)cc2)CCC(=O)NC1=O (racemic) [(±)-p-Aminoglutethimide]', 'normalised cell viability', 0.866),
  ('C[C@H](N)CN1CCc2ccc(Br)cc21 [VER-3323 hemifumarate salt]', 'normalised cell viability', 1),
  ('CC1C2Cc3ccc(O)cc3C1(C)CCN2CC1CC1 (single isomer, unassigned; (+)) [(+)-Cyclazocine]', 'normalised cell viability', 1),
  ('CC(N)c1cccc(Cl)c1Cl (racemic) [(±)-2,3-Dichloro-alpha-methylbenzylamine hydrochloride]', 'normalised cell viability', 1),
  ('CC[C@@]1(O)C(=O)OCc2c1cc1n(c2=O)Cc2cc3ccccc3nc2-1 [(S)-(+)-Camptothecin]', 'normalised cell viability', 0.328);
